Assign z-score to each entry below.
test: budding yeast growth modifiers under rapamycin – strain BY4716, OD600, 96 h, primary screen (AID 1091); further: test concentration not given here; details: S. cerevisiae BY4716 + rapamycin, higher = more signal, called active from +8 up or from −8 down
Give bare numbers.

Solved cases (5 shown):
# molecule, z-score
rows = [
    ("Cc1ccc(S[C@]2(C(=O)NC3CC3)CC(=O)N(C(C)C)[C@@H]2c2ccc(CO)cc2I)cc1", -0.2),
    ("CCOC(=O)C[C@H]1[C@H](OC(=O)c2cc3ccccc3oc2=O)[C@@H](NC(=O)CC(C)C)c2cc(OCCCO)ccc2N1C(=O)Cc1ccc(OC)cc1", 0.052),
    ("[N-]=[N+]=Nc1ccccc1C[C@@]1(C(=O)NCC(O)CO)N=C(c2ccc(OCCCO)cc2)O[C@@H]1c1ccccc1 (some centres not stated)", -1.31),
    ("C=C(CCCC)/C(=C/C[C@H](OC(C)=O)c1cccc(OCCO)c1)c1cnc2ccccc2c1", 1.32),
    ("O=C(NCc1ccccc1)[C@@H]1c2ccccc2C(=O)N(Cc2cc(C(F)(F)F)cc(C(F)(F)F)c2)[C@H]1c1ccc(CO)cc1", 0.296),
]

Give measured z-score for every item shown.
1. CCCCC(O)C1C=CC2C(=O)N(c3ccccc3)C(=O)C2N1Nc1ccccc1 (configuration not stated)
2. C=CCC(OC(C)=O)[C@@H]1[C@@H](N(Cc2cc3ccccc3o2)C(=O)c2cccc3ccccc23)c2cc(OCCCO)ccc2N1C(=O)c1ccc2ccccc2n1 (some centres not stated)

1. 1.77
2. 0.12

* * *

experiment: hepatitis C replication reporter changes, two-sided – Huh7 cells, luciferase reporter, HCV replication inhibitor project, primary screen (AID 1109); settings: Huh7 HCV replicon luciferase reporter, 48 h; higher = more signal;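 further: huh7 hepatoma cells harbouring a luciferase neomycin HCV replicon reporter; luciferase luminescence as measure of HCV replicon replication; test concentration not given here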
measured-property: z-score
Numbers only.

Give measured z-score for every item shown.
1. N#Cc1ccc(NN2C(C(O)C3CC=CCC3)C=CC3C(=O)N(c4ccccc4)C(=O)C32)cc1 (stereo not given)
2. C=CCC(OC(C)=O)[C@@H]1[C@@H](N(Cc2cccc3ccccc23)C(=O)c2ccc(-c3ccccc3)cc2)c2cc(OCCCO)ccc2N1C(=O)Cc1ccc2ccccc2c1 (stereo not given in full)
3. O=C(NCc1ccccc1)[C@@H]1c2ccccc2C(=O)N(Cc2ccc(OC(F)(F)F)cc2)[C@H]1c1ccc(CO)cc1
4. CN(C)CCCC[C@@H]1NC(=O)[C@H]2C[C@@H](C(=O)O)[C@@H](c3ccc(O)cc3)N2C1=O

-0.137
-0.105
-1.1
-0.0575

Give measured z-score for every item shown.
1. C=CCOC(=O)[C@H]1[C@@H]2C(=O)O[C@@H](c3ccccc3)[C@@H](c3ccccc3)N2[C@@H](c2ccc(OCCOC(=O)[C@H]3C[C@H]4C(=O)N[C@@H](CC(C)C)C(=O)N4[C@H]3c3ccc(O)cc3)cc2)[C@]12C(=O)Nc1ccccc12
2. C=CCC(OC(C)=O)[C@@H]1[C@@H](N(Cc2cccc3ccccc23)C(=O)Cc2ccc(OC)cc2)c2cc(OCCCO)ccc2N1C(=O)c1ccc2ccccc2c1 (stereo not given in full)

1: -1.75; 2: -0.922

Give measured z-score for every item shown.
1. COCCOC(=O)N1C(=O)[C@@]2(c3cc(C#CCC(C(=O)OC)C(=O)OC)ccc31)[C@H](C(=O)Nc1nc3ccccc3s1)[C@H]1C(=O)O[C@H](c3ccccc3)[C@H](c3ccccc3)N1[C@@H]2c1ccc(OCCO)cc1
2. CC1=C([C@H](O)CCc2ccccc2)[C@H](CO)n2c(=O)n(-c3ccccc3)c(=O)n2C1
3. CC1CC/C=C\[C@H]2OC34C=CCN(Cn5nnc6ccccc65)C(=O)[C@H]3N(CCCCCCO)C(=O)[C@@H]4C2C(=O)O1 (stereo not given in full)
4. [N-]=[N+]=NCc1ccccc1[C@@H]1OC(c2ccc(OCCCO)cc2)=N[C@]1(Cc1ccccc1N=[N+]=[N-])C(=O)O
5. CC(C)(C)OC(=O)CC[C@]1(C(=O)NCC(O)CO)N=C(c2ccc(OCCCO)cc2)O[C@H]1c1ccccc1N=[N+]=[N-] (stereo not given in full)
6. CC(C)C[C@@H]1NC(=O)[C@@]23C(=O)N[C@@H](Cc4ccccc4)C2[C@H](C)[C@@]2(C)O[C@H]2C3/C=C/C/C=C\CNC(=O)CNC1=O (stereo not given in full)

[-2.03, -0.508, 0.0151, -0.909, 1.18, 0.349]

Give measured z-score for every item shown.
1. COCCOC(=O)N1C(=O)[C@@]2(c3cc(C#CCNC(N)=O)ccc31)[C@H](C(=O)Nc1nc3ccccc3s1)[C@H]1C(=O)O[C@H](c3ccccc3)[C@H](c3ccccc3)N1[C@@H]2c1ccccc1OCCO
2. CN(C)CCCCNC(=O)[C@H]1C[C@H]2C(=O)N3CCC[C@H]3C(=O)N2[C@H]1c1cccc(OCCO)c1
3. O=C1C2C=CC(C(O)c3c(F)cccc3Cl)N(Nc3ccc([N+](=O)[O-])cc3)C2C(=O)N1c1ccccc1 (stereo not given)
4. COC(=O)[C@@]1(Cc2ccc(F)cc2)[C@H]2c3cc(C(=O)N(C)C)n(CCc4ccc(O)c(O)c4)c3C[C@H]2CN1C(=O)c1ccccc1
5. C[C@@H]1NC(=O)C([C@@H](C)OCc2ccccc2)NC(=O)[C@@]23C(=O)N[C@@H](Cc4ccccc4)C2[C@H](C)[C@@]2(C)O[C@H]2C3/C=C/C/C=C\CNC1=O (stereo not given in full)

1: -1.22; 2: -0.0955; 3: 0.128; 4: -1.78; 5: -0.914

Give measured z-score for every item shown.
1. COCCOC(=O)N1C(=O)[C@@]2(c3ccccc31)[C@H](C(=O)N1CCN(c3ncccn3)CC1)[C@H]1C(=O)O[C@H](c3ccccc3)[C@H](c3ccccc3)N1[C@@H]2c1ccccc1OCCO
2. CC(=O)NCCCC[C@@H]1NC(=O)[C@H]2C[C@@H](C(=O)NCCCCCCNC(=O)CS)[C@@H](c3cccc(OCCO)c3)N2C1=O
3. C=C(CCCC)C(=O)CC[C@H](OC(=O)c1ccccc1-c1ccccc1C(=O)O)c1ccc(OCCO)cc1
4. CC(C)(C)OC(=O)CC[C@@]1(C(=O)NCCN2CCOCC2)N=C(c2ccc(OCCCO)cc2)O[C@@H]1c1ccccc1CN=[N+]=[N-]
5. C=CCNC(=O)[C@H]1[C@@H]2C(=O)O[C@@H](c3ccccc3)[C@@H](c3ccccc3)N2[C@@H](c2ccc(OCCO)cc2)[C@]12C(=O)Nc1ccccc12
6. COCCOC(=O)N1C(=O)[C@@]2(c3cc(C#CC4(O)CCCCCC4)ccc31)[C@H](c1ccc(O)cc1)N1[C@H](c3ccccc3)[C@H](c3ccccc3)OC(=O)[C@H]1[C@@H]2C(=O)N1CCCCCCC1

[-1.79, -0.199, -2.05, -0.0116, -1.4, -1.05]

Give measured z-score for every item shown.
1. O=C(NC1CC1)[C@@H]1c2ccccc2C(=O)N(CC23CC4CC(CC(C4)C2)C3)[C@H]1c1ccc(CO)cc1
2. COC(=O)[C@@]1(Cc2ccc(F)cc2)[C@H]2c3cc(C(=O)N4CCCC4)n(Cc4cc(F)cc5c4OCOC5)c3C[C@H]2CN1C(=O)c1ccccc1

-1.22
-2.1

* * *

Assign composite z-score to each entry below.
test system: Inhibin beta A chain (activin A); experiment: small molecules binding activin A – biochemical, small-molecule microarray, 635 nm fluorescence scan, primary screen (AID 1107); settings: INHBA, higher = more signal;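 further: mouse activin A protein probed at 4.33 µg/mL on printed slides; score merges bound-protein fluorescence near 667 nm with spot signal-to-noise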
One number for each entry.

Solved cases (4 shown):
# compound-smiles, recorded-value
rows = [
    ("C=CCN1C(=O)[C@@]2(O[C@@H](CCn3cc([C@H](O)c4ccccc4)nn3)[C@H]([Si](C)(C)c3ccc(OC)cc3)[C@H]2C)c2cc(N3C(=O)c4cccc5cccc3c45)ccc21", -0.893),
    ("CCCCCCc1nc(Cc2cc(OC)c(OC)c(OC)c2)cc2c1[Si](C(C)C)(C(C)C)O[C@H]2c1ccccc1", 0.882),
    ("COCCOC(=O)N1C(=O)[C@@]2(c3cc(C#CCC(C(=O)OC)C(=O)OC)ccc31)[C@H](C(=O)Nc1nc3ccccc3s1)[C@H]1C(=O)O[C@H](c3ccccc3)[C@H](c3ccccc3)N1[C@@H]2c1ccc(OCCO)cc1", 0.286),
    ("COCCCNC(=O)[C@@H]1c2ccccc2C(=O)N(Cc2ccc(OC(F)(F)F)cc2)[C@H]1c1ccc(CO)cc1", 0.639),
]

Give measured composite z-score for every item shown.
1. C=CC[C@@]1(C(=O)OC)N=C(c2ccc(OCCCO)cc2)O[C@@H]1c1ccccc1N=[N+]=[N-]
2. C=C1C(=O)C=C2CN(C(=O)c3ccccc3)[C@@](Cc3ccc(OC)cc3)(C(=O)OC)[C@@H]12
3. Cc1ccc(S[C@]2(C(=O)NC3CC3)CC(=O)N(C(C)C)[C@@H]2c2ccc(CO)cc2I)cc1
4. CC[C@@H]1C=C(C(=O)O)[C@H](c2ccc(OC)cc2)N1S(=O)(=O)c1ccc(C)cc1

[0.767, 0.516, 0.318, 0.615]

Any idea what its composite z-score is? The compound is COC(=O)[C@@]1(Cc2ccc(F)cc2)[C@H]2c3cc(C(=O)N(C)C)n(C)c3C[C@H]2CN1C(=O)c1ccccc1 0.468
